Task for the reader: assign each of the following variants its reported aptazyme ON/OFF ratio.
B1: Pistol ribozyme (parent)
chain: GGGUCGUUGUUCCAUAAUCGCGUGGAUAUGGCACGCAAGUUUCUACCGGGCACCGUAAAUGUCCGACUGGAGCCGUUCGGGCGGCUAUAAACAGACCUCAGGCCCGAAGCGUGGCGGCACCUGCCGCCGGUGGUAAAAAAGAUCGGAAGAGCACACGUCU

Variants of: B1
ASSAY_NAME: aptazyme ON/OFF ratio, guanine; higher = stronger switching; co-transcriptional cleavage with and without guanine

In: Note down aptazyme ON/OFF ratio recorded for U8C G9U U10C
Out: 1.87

In: Note down aptazyme ON/OFF ratio recorded for U7A U8G G9A U11A C12A C13A
Out: 1.39

In: Note down aptazyme ON/OFF ratio recorded for U7C U8G U10G U11A
Out: 1.17

In: Note down aptazyme ON/OFF ratio recorded for U7A U8G U10G C12A
Out: 1.17

In: Note down aptazyme ON/OFF ratio recorded for U7A U8C U11C C12G C13U
Out: 1.5

In: Note down aptazyme ON/OFF ratio recorded for U7C U8A G9U U10C U11G C12U C13U
Out: 1.15

In: Note down aptazyme ON/OFF ratio recorded for U7C U8C G9U U10C U11G C12U
Out: 1.22

In: Note down aptazyme ON/OFF ratio recorded for G9A U10A U11C C12G C13A
Out: 1.31

In: Note down aptazyme ON/OFF ratio recorded for U7C U8A G9C U10G U11G C12A C13G
Out: 1.12

In: Note down aptazyme ON/OFF ratio recorded for U7C U8G U11C C12A C13A
Out: 1.28

In: Note down aptazyme ON/OFF ratio recorded for U7C U8A G9U U10G U11G C12A C13G
Out: 1.11

In: Note down aptazyme ON/OFF ratio recorded for U7C U8G U10A U11C C12U C13A
Out: 1.1

In: Note down aptazyme ON/OFF ratio recorded for U7A U8A G9C U10A C12A C13A
Out: 1.11

In: Note down aptazyme ON/OFF ratio recorded for U7A U8G U10A U11A C12G
Out: 1.13

In: Note down aptazyme ON/OFF ratio recorded for G9U U10A U11G C13G
Out: 1.22

In: Note down aptazyme ON/OFF ratio recorded for U8A U10G U11A C12A C13G
Out: 1.15

In: Note down aptazyme ON/OFF ratio recorded for U7G U8G G9U U10A C12U C13A
Out: 1.11

In: Note down aptazyme ON/OFF ratio recorded for U7A U8C G9C U10C U11G C12G C13G
Out: 1.08

In: Note down aptazyme ON/OFF ratio recorded for U7A U8C G9U U10A U11C C12G C13U
Out: 1.18

In: Note down aptazyme ON/OFF ratio recorded for U7G U8A U10C U11A C12G C13G
Out: 1.22

In: Note down aptazyme ON/OFF ratio recorded for U7G U8G G9U U10C C13A
Out: 1.43

In: Note down aptazyme ON/OFF ratio recorded for U8G G9A U10G C12U C13G
Out: 1.16

In: Note down aptazyme ON/OFF ratio recorded for U7A G9C U10G C12U C13U
Out: 1.56

In: Note down aptazyme ON/OFF ratio recorded for U11A C12G C13G
Out: 1.18

In: Note down aptazyme ON/OFF ratio recorded for U7A U8C G9C U10A U11A C12A C13A
Out: 1.05

In: Note down aptazyme ON/OFF ratio recorded for U8G U10C C12G C13A
Out: 1.13

Sourced from the RNAGym collection of RNA variant scans (doi:10.1021/acssynbio.7b00057)
